target: PLK1 (Homo sapiens); construct: endogenous in cells; host or cells: HeLa; assay: PLK1 protein degradation in HeLa cells, Western blotting (PLK1/GAPDH ratio); format: cell-based; details: thymidine block and release, 6 hours compound incubation, 10 points three-fold from 3 μM, PLK1 to GAPDH ratio
MEASUREMENT_TYPE: Dmax

COMPOUND	MEASUREMENT_TYPE	RESULT
COc1cc(C(=O)NC2CCN(CCOCCOCCOCCOCC(=O)N[C@H](C(=O)N3C[C@H](O)C[C@H]3C(=O)NCc3ccc(-c4scnc4C)cc3)C(C)(C)C)CC2)c(F)cc1Nc1ncc2c(n1)N(C1CCCC1)CC(F)(F)C(=O)N2C [Example 82]	Dmax	C (C: less than 60%)
COc1cc(C(=O)NC2CCN(CCOCCOCCOCCOCCOCC(=O)N[C@H](C(=O)N3C[C@H](O)C[C@H]3C(=O)NCc3ccc(-c4scnc4C)cc3)C(C)(C)C)CC2)c(F)cc1Nc1ncc2c(n1)N(C1CCCC1)CC(F)(F)C(=O)N2C [Example 83]	Dmax	C (C: less than 60%)

---

target: PLK1 (Homo sapiens); construct: endogenous in cells; host or cells: HeLa; test: PLK1 protein degradation in HeLa cells, Western blotting (PLK1/GAPDH ratio); type: cell-based; settings: thymidine block and release, 6 hours compound incubation, 10 points three-fold from 3 μM, PLK1 to GAPDH ratio, read-out: Dmax
Task for the reader: assign each of the following molecules its reported Dmax.

// sample COc1cc(C(=O)NC2CCN(CCOCCOCCOCCOCCOCCOCCOCCNC(=O)COc3cccc4c3C(=O)N(C3CCC(=O)NC3=O)C4=O)CC2)c(F)cc1Nc1ncc2c(n1)N(C1CCCC1)CC(F)(F)C(=O)N2C (centres unmarked) [Compound 58] , its Dmax was < 60%

Looking up COc1cc(C(=O)NC2CCN(CCOCCOCCOCCOCC#Cc3cccc4c3C(=O)N(C3CCC(=O)NC3=O)C4=O)CC2)c(F)cc1Nc1ncc2c(n1)N(C1CCCC1)CC(F)(F)C(=O)N2C (centres unmarked) [Compound 52] , I see its Dmax listed as ≥ 80%

The recorded Dmax for entry COc1cc(C(=O)NCCOCCOCCNc2cccc3c2C(=O)N(C2CCC(=O)NC2=O)C3=O)c(F)cc1Nc1ncc2c(n1)N(C(C)C)CC(F)(F)C(=O)N2C (centres unmarked) [Example 167] equals 60 to 80%

// Dmax value for COc1cc(C(=O)NC2CCN(CCOCCOCCOCCOCCNc3cccc4c3C(=O)N(C3CCC(=O)NC3=O)C4=O)CC2)c(F)cc1Nc1ncc2c(n1)N(C(C)C)CC(F)(F)C(=O)N2C (centres unmarked) [Example 101] : ≥ 80%

The recorded Dmax for entry COc1cc(C(=O)NC2CCN(Cc3ccc(OCCNc4cccc5c4C(=O)N(C4CCC(=O)NC4=O)C5=O)cc3)CC2)c(F)cc1Nc1ncc2c(n1)N(C1CCCC1)CC(F)(F)C(=O)N2C (centres unmarked) [Compound 40] equals 60 to 80%

---

target: PLK1 (Homo sapiens, UniProt P53350); construct: endogenous in cells; host or cells: HeLa; assay: PLK1 protein degradation in HeLa cells, Western blotting (PLK1/GAPDH ratio); type: cell-based; conditions: thymidine block and release, 6 hours compound incubation, 10 points three-fold from 3 μM, PLK1 to GAPDH ratio, read-out: Dmax
Sequence (P53350 whole entry): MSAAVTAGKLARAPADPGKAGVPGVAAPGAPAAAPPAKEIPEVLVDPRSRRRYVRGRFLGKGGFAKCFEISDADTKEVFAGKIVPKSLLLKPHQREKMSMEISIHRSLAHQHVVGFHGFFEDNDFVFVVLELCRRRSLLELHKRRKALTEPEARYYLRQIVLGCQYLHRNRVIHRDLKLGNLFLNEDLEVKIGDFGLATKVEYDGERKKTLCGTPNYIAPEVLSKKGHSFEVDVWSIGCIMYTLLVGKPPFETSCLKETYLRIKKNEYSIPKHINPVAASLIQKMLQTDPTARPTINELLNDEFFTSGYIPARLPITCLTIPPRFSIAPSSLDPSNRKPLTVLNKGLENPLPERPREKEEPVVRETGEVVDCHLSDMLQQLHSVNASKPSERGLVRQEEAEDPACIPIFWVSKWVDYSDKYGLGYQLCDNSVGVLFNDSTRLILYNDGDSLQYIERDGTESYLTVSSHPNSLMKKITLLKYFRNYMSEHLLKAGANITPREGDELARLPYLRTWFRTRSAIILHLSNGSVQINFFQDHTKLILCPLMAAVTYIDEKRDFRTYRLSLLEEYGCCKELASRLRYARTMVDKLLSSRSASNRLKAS
Give Dmax for every item shown.

// COc1cc(C(=O)NC2CCN(CCOCCOCCNc3ccc4c(c3)C(=O)N(C3CCC(=O)NC3=O)C4=O)CC2)c(F)cc1Nc1ncc2c(n1)N(C1CCCC1)CC(F)(F)C(=O)N2C (centres unmarked) : Dmax value = ≥ 80%

Sample COc1cc(C(=O)NC2CCN(CCOCCCCCCCCOCCNc3cccc4c3C(=O)N(C3CCC(=O)NC3=O)C4=O)CC2)c(F)cc1Nc1ncc2c(n1)N(C1CCCC1)CC(F)(F)C(=O)N2C (centres unmarked) ; Dmax observed: 60 to 80%

Note to self: Dmax recorded for COc1cc(C(=O)N[C@@H]2CCN(C(=O)CCCCN3CCN(c4cccc5c4C(=O)N(C4CCC(=O)NC4=O)C5=O)CC3)C2)c(F)cc1Nc1ncc2c(n1)N(C1CCCC1)CC(F)(F)C(=O)N2C (some centres unmarked) was ≥ 80%

The compound COc1cc(C(=O)N[C@H]2CCN(CC(=O)NCCCNc3cccc4c3C(=O)N(C3CCC(=O)NC3=O)C4=O)C2)c(F)cc1Nc1ncc2c(n1)N(C1CCCC1)CC(F)(F)C(=O)N2C (some centres unmarked) showed Dmax equal to ≥ 80%

For COc1cc(C(=O)NC2CCN(CCOCCOCCCc3cccc4c3C(=O)N(C3CCC(=O)NC3=O)C4=O)CC2)c(F)cc1Nc1ncc2c(n1)N(C1CCCC1)CC(F)(F)C(=O)N2C (centres unmarked) the compound record lists Dmax as 60 to 80%

---

Field: DC50. Provide a value for each of the compounds that follow.
target: PLK1 (Homo sapiens, UniProt P53350); construct: endogenous in cells; host or cells: HeLa; assay: PLK1 protein degradation in HeLa cells, Western blotting (PLK1/GAPDH ratio); type: cell-based; conditions: 6 hours compound incubation, measured only if the grade of Dmax is A or B

Simply: COc1cc(C(=O)NC2CCN(CCOCCCNc3cccc4c3C(=O)N(C3CCC(=O)NC3=O)C4=O)C2)c(F)cc1Nc1ncc2c(n1)N(C1CCCC1)CC(F)(F)C(=O)N2C (stereo not shown) [Example 110] , PLK1 (Homo sapiens, UniProt P53350), DC50 = ≤ 50 nM

# COc1cc(C(=O)NCCOCCCNc2cccc3c2C(=O)N(C2CCC(=O)NC2=O)C3=O)c(F)cc1Nc1ncc2c(n1)N(C1CCCC1)CC(F)(F)C(=O)N2C (stereo not shown) [Compound 155] with PLK1 (Homo sapiens, UniProt P53350): DC50 is ≤ 500 nM

Here COc1cc(C(=O)N[C@H]2CCN(C(=O)COCCOCCNc3cccc4c3C(=O)N(C3CCC(=O)NC3=O)C4=O)C2)c(F)cc1Nc1ncc2c(n1)N(C1CCCC1)CC(F)(F)C(=O)N2C (stereo partly shown) [Compound 115] was tested on PLK1 (Homo sapiens, UniProt P53350), and its DC50 came to ≤ 50 nM

Short answer on PLK1 (Homo sapiens, UniProt P53350) for COc1cc(C(=O)NC2CCN(CCOCCNC(=O)COc3cccc4c3C(=O)N(C3CCC(=O)NC3=O)C4=O)C2)c(F)cc1Nc1ncc2c(n1)N(C1CCCC1)CC(F)(F)C(=O)N2C (stereo not shown) [Compound 127] , DC50: ≤ 500 nM

I looked up COc1cc(C(=O)NC2CCN(CCOCCCCCCCCOCCNc3cccc4c3C(=O)N(C3CCC(=O)NC3=O)C4=O)CC2)c(F)cc1Nc1ncc2c(n1)N(C1CCCC1)CC(F)(F)C(=O)N2C (stereo not shown) [Compound 22] and its DC50 for PLK1 (Homo sapiens, UniProt P53350) was ≤ 500 nM

Form field DC50 for item COc1cc(C(=O)NCC2CCCN2CCOCCNc2cccc3c2C(=O)N(C2CCC(=O)NC2=O)C3=O)c(F)cc1Nc1ncc2c(n1)N(C1CCCC1)CC(F)(F)C(=O)N2C (stereo not shown) [Compound 124] on PLK1 (Homo sapiens, UniProt P53350): ≤ 500 nM

Bench note, PLK1 (Homo sapiens, UniProt P53350): entry COc1cc(C(=O)NC2CCN(CCN3CCN(c4cccc5c4C(=O)N(C4CCC(=O)NC4=O)C5=O)CC3)CC2)c(F)cc1Nc1ncc2c(n1)N(C1CCCC1)CC(F)(F)C(=O)N2C (stereo not shown) [Compound 66] , its DC50 = ≤ 500 nM

DC50 for PLK1 (Homo sapiens, UniProt P53350) with input COc1cc(C(=O)NC2CCN(CCOCCCOCCOCCOCCNc3cccc4c3C(=O)N(C3CCC(=O)NC3=O)C4=O)CC2)c(F)cc1Nc1ncc2c(n1)N(C1CCCC1)CC(F)(F)C(=O)N2C (stereo not shown) [Compound 25] equals ≤ 50 nM

// DC50 (PLK1 (Homo sapiens, UniProt P53350)) for COc1cc(C(=O)N[C@H]2CCN(C(=O)CCC(=O)N3CCN(c4cccc5c4C(=O)N(C4CCC(=O)NC4=O)C5=O)CC3)C2)c(F)cc1Nc1ncc2c(n1)N(C1CCCC1)CC(F)(F)C(=O)N2C (stereo partly shown) [Compound 140] = ≤ 50 nM

Field DC50 (system: PLK1 (Homo sapiens, UniProt P53350)) for entry COc1cc(C(=O)NC2CCN(CCOCCOCCOCCOCCNc3cccc4nnn(C5CCC(=O)NC5=O)c(=O)c34)CC2)c(F)cc1Nc1ncc2c(n1)N(C1CCCC1)CC(F)(F)C(=O)N2C (stereo not shown) [Compound 78] = ≤ 50 nM

---

For each record, write down the corresponding DC50.
Biological target: PLK1 (Homo sapiens, UniProt P53350)
Construct: endogenous in cells; host or cells: HeLa
Assay: PLK1 protein degradation in HeLa cells, Western blotting (PLK1/GAPDH ratio)
Format: cell-based
Settings: 6 hours compound incubation, measured only if the grade of Dmax is A or B
Excerpt: The HeLa cell line was purchased from Korea Cell Line Bank (KCLB), Seoul, Korea. The passage in cell culture was maintained at P115 to P125. […]

DC50 reported for this compound COc1cc(C(=O)NC2CCN(C(=O)CN3CCN(c4cccc5c4C(=O)N(C4CCC(=O)NC4=O)C5=O)CC3)CC2)c(F)cc1Nc1ncc2c(n1)N(C1CCCC1)CC(F)(F)C(=O)N2C (stereo not drawn) : ≤ 500 nM

Memo: COc1cc(C(=O)NCCOCCCOCCNc2cccc3c2C(=O)N(C2CCC(=O)NC2=O)C3=O)c(F)cc1Nc1ncc2c(n1)N(C1CCCC1)CC(F)(F)C(=O)N2C (stereo not drawn) , reported DC50: ≤ 50 nM

The measured DC50 associated with COc1cc(C(=O)NC2CCN(C(=O)CCN3CCN(c4cccc5c4C(=O)N(C4CCC(=O)NC4=O)C5=O)CC3)CC2)ccc1Nc1ncc2c(n1)N(C1CCCC1)CC(F)(F)C(=O)N2C (stereo not drawn) reads ≤ 50 nM
